Test system: FXR:RXRa (NR concentration 270 nM, RXRa partner concentration 90 nM)
Experiment: PBM binding z-score (relative to random genomic background probes); higher = stronger binding; sequences stand for … in GC…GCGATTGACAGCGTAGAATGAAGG
Give fulfilled when the value for PBM binding z-score is at least 2. Give not fulfilled when it is less.

Sample answers from the record:
- TCTAGTTGGTCAAAGGTCACAGACTCGAAATGCG: fulfilled
- GTACCAAGGTGAATAGGTCTTTGATGAGTAGGCG: not fulfilled
- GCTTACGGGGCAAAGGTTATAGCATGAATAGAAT: fulfilled
- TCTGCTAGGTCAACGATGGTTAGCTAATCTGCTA: fulfilled
- TTTCCAAGGTGAAGGTCGTTGATCCCTCTGTAGA: fulfilled
- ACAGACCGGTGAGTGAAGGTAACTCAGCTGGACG: not fulfilled

Request: Does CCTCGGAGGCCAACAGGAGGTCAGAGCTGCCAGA have a reported PBM binding z-score of at least 2?
Response: not fulfilled

Request: Does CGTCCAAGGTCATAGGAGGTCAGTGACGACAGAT have a reported PBM binding z-score of at least 2?
Response: fulfilled

Request: Does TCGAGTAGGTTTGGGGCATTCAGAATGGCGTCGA have a reported PBM binding z-score of at least 2?
Response: not fulfilled
